# STUDY_SYSTEM: RET kinase M918T (Homo sapiens, UniProt P07949, M918T)
# Sequence (P07949 29-1114 M918T): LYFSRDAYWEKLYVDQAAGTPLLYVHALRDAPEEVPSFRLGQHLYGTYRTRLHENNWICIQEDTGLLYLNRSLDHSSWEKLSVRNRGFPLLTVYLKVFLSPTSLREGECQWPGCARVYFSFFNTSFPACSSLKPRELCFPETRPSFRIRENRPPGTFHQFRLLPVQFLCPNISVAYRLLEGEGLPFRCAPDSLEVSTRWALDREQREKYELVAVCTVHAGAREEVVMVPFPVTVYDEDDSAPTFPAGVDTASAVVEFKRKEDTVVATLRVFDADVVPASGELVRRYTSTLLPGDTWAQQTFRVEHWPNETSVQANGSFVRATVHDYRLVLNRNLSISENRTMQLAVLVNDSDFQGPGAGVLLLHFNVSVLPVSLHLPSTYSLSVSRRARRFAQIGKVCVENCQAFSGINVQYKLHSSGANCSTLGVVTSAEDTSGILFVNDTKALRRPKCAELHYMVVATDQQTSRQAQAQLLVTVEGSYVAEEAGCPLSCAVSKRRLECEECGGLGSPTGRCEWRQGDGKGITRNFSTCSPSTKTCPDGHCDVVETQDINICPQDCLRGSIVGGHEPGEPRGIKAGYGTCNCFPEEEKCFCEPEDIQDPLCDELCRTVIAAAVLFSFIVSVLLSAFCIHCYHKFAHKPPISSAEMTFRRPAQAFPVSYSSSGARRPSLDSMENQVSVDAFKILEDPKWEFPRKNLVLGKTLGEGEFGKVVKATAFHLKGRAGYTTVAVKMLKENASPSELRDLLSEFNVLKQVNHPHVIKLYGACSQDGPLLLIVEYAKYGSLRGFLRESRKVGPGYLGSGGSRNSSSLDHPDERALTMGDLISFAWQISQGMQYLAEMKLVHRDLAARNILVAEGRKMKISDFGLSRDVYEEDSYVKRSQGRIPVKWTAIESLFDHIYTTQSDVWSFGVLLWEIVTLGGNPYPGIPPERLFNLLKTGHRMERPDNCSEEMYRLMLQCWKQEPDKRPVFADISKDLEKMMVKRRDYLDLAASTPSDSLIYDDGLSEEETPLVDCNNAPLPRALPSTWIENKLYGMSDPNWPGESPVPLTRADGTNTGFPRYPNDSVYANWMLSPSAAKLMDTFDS
# ASSAY_METHOD_TEXT: RET Enzyme Assay (HTRF KinEASE-TK), M918T
PROPERTY_MEASURED: IC50 (nM)

INSERT INTO measurements (compound, value_unit, observed_measurement) VALUES
  ('CC(C)n1nc(-c2cc(-c3ccccc3)nn2C2CCCCO2)c2c(N)ncnc21 (centres unmarked)', 'nM', 9.8),
  ('CC(C)n1nc(-c2noc(C3CC3)c2-c2cnn(C)c2)c2c(N)ncnc21', 'nM', 12.2),
  ('Cc1cc(-c2nn(C(C)C)c3ncnc(N)c23)n(C2CCCCO2)n1 (centres unmarked)', 'nM', 4.1),
  ('CC(C)n1nc(-c2cc(C3CC3)nn2C2CCCCO2)c2c(N)ncnc21 (centres unmarked)', 'nM', 6.1),
  ('CC(C)n1nc(-c2cc(C3CC3)nn2C2CCCCC2)c2c(N)ncnc21', 'nM', 14.2),
  ('CC(C)n1nc(-c2noc(C3CC3)c2C2CCOCC2)c2c(N)ncnc21', 'nM', 0.8);

[a] CC(C)n1nc(-c2noc(C3CC3)c2C2=CCC(O)CC2)c2c(N)ncnc21 (centres unmarked)
[b] CC(C)n1nc(-c2cc(C(F)(F)F)nn2C2CCCCO2)c2c(N)ncnc21 (centres unmarked)
Exercise: Compare the recorded IC50 of a and b ; state which is larger. Select an item and report its label.
Solution: b

---

# STUDY_SYSTEM: RET kinase G810S (Homo sapiens, UniProt P07949, G810S)
# Sequence (P07949 29-1114 G810S): as the sequence (P07949 29-1114 M918T) above, with G782S, T890M counted along it
# ASSAY_METHOD_TEXT: RET Enzyme Assay (HTRF KinEASE-TK), G810S
# Format: biochemical
pIC50: −log10 of the molar value.
PROPERTY_MEASURED: pIC50

INSERT INTO results (compound, property_measured, observed_measurement) VALUES
  ('CC(C)n1nc(-c2noc(C3CC3)c2-c2ccccc2)c2c(N)ncnc21', 'pIC50', 7.58);

[a] CC(C)n1nc(-c2noc(C3CC3)c2I)c2c(N)ncnc21
[b] CC(C)n1nc(-c2noc(C3CC3)c2C2=CCCCO2)c2c(N)ncnc21
[c] CC(C)c1cc(-c2nn(C(C)C)c3ncnc(N)c23)n(C2CCCCO2)n1 (centres unmarked)
[d] CC(C)n1nc(-c2cc(-c3ccccc3)nn2C2CCCCO2)c2c(N)ncnc21 (centres unmarked)
Exercise: Could you please order the items by pIC50, going from the lowest number to the highest? Write out the labels following the order that was asked for.
Solution: c, d, a, b
(c: 6.65, d: 7.27, a: 7.61, b: 8.85)

---

# STUDY_SYSTEM: HEK-293 cells expressing a G810R mutant RET Kif5b-RET fusion protein (Homo sapiens, UniProt P07949, G810R)
# Construct: expressed in transfected cells; host or cells: HEK-293; the other entry of the earlier key: KIF5B (P33176, Kinesin-1 heavy chain)
# ASSAY_METHOD_TEXT: RET G810R Mutant Cell Assay (phospho-RET Tyr1062)
# Assay type: cell-based
# ASSAY_CONTEXT: 1 hour with compound, phospho-RET(Tyr1062) normalized to GAPDH
PROPERTY_MEASURED: IC50 (nM)

Known IC50 results, listed for orientation:
INSERT INTO results (molecule, value_unit, observed_measurement) VALUES
  ('CC(C)n1nc(-c2noc(C3CC3)c2C2=CCC(C)(O)CC2)c2c(N)ncnc21 (stereo not shown) [Example 15]', 'nM', 263),
  ('CC(C)n1nc(-c2noc(C3CC3)c2C2CCCCO2)c2c(N)ncnc21 (stereo not shown) [Example 16]', 'nM', 162),
  ('CC(C)n1nc(-c2ccnn2C2CCCCO2)c2c(N)ncnc21 (stereo not shown) [Example 23]', 'nM', 10000),
  ('CC(C)n1nc(-c2cc(C3CC3)nn2C2CCCCO2)c2c(N)ncnc21 (stereo not shown) [Example 19]', 'nM', 628),
  ('CC(C)n1nc(-c2noc(C3CC3)c2C2CCOCC2)c2c(N)ncnc21 [Example 17]', 'nM', 264);

[P] CC(C)n1nc(-c2noc(C3CC3)c2-c2ccn(C)n2)c2c(N)ncnc21 [Example 2]
[Q] CC(C)n1nc(-c2noc(C3CC3)c2C2=CCC(O)CC2)c2c(N)ncnc21 (stereo not shown) [Example 14]
[R] CC(C)n1nc(-c2noc(C3CC3)c2C2=CCCCO2)c2c(N)ncnc21 [Example 9]
Exercise: rank_up(items): orders items by reported IC50 in ascending numerical order. Put the labels in the requested order and write them down.
Solution: Q, R, P

[1] C=Cc1cc(-c2nn(C(C)C)c3ncnc(N)c23)n(C2CCCCO2)n1 (stereo not shown) [Example 22]
[2] Cc1cc(-c2nn(C(C)C)c3ncnc(N)c23)n(C2CCCCO2)n1 (stereo not shown) [Example 21]
Exercise: Could you determine which record has the numerically smaller IC50? Candidates: 1 and 2 Lab note: record the label of whichever item you select.
Solution: 1
(1: 214 nM, 2: 342 nM)

---

# STUDY_SYSTEM: RET kinase G810R (Homo sapiens, UniProt P07949, G810R)
# Sequence (P07949 29-1114 G810R): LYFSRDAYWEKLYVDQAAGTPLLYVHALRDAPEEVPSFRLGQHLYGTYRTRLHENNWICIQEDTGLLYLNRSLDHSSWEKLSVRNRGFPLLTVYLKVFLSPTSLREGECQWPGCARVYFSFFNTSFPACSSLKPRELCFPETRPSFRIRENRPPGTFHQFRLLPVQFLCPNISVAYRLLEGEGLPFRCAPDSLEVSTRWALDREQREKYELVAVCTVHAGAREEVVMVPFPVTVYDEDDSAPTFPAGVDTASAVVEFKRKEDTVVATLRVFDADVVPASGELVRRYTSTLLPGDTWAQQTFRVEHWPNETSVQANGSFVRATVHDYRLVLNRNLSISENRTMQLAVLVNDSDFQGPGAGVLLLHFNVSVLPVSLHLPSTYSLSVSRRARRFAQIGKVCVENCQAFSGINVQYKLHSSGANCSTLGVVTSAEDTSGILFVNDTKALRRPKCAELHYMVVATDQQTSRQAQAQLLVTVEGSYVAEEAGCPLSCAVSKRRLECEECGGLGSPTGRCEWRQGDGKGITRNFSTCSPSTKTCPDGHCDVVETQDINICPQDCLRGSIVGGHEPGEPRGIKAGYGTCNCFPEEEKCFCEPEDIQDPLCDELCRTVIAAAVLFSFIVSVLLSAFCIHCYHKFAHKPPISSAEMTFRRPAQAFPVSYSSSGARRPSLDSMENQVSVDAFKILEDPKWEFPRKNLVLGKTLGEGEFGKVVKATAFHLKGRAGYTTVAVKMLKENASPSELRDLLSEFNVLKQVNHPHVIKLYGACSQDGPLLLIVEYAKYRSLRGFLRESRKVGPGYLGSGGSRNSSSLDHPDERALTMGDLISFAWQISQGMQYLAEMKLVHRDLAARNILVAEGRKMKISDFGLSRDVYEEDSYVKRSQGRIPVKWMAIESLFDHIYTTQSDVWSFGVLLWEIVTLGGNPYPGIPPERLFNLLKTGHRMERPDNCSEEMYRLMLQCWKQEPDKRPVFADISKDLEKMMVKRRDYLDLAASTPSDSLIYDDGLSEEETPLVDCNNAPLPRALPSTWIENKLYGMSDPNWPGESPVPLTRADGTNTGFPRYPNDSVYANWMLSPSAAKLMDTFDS
# ASSAY_METHOD_TEXT: RET Enzyme Assay (HTRF KinEASE-TK), G810R
pIC50: −log10 of the molar value.
PROPERTY_MEASURED: pIC50

Example entries and their recorded answers appear below.
INSERT INTO measurements (molecule, study_system, observed_measurement) VALUES
  ('CC(C)n1nc(-c2noc(C3CC3)c2C2CCCCO2)c2c(N)ncnc21 (stereo not drawn)', 'RET kinase G810R (Homo sapiens, UniProt P07949, G810R)', 8.44),
  ('CC(C)n1nc(-c2noc(C3CC3)c2C2=CCOCC2)c2c(N)ncnc21', 'RET kinase G810R (Homo sapiens, UniProt P07949, G810R)', 7.87),
  ('CC(C)n1nc(-c2noc(C3CC3)c2C2=CCC(C)(O)CC2)c2c(N)ncnc21 (stereo not drawn)', 'RET kinase G810R (Homo sapiens, UniProt P07949, G810R)', 8.20),
  ('CC(C)n1nc(-c2ccnn2C2CCCCO2)c2c(N)ncnc21 (stereo not drawn)', 'RET kinase G810R (Homo sapiens, UniProt P07949, G810R)', 7.80),
  ('CC(C)n1nc(-c2noc(C3CC3)c2-c2ccccc2)c2c(N)ncnc21', 'RET kinase G810R (Homo sapiens, UniProt P07949, G810R)', 8.00);

[A] CC(C)n1nc(C2CC2)cc1-c1nn(C(C)C)c2ncnc(N)c12
[B] CC(C)n1nc(-c2noc(C3CC3)c2I)c2c(N)ncnc21
[C] CC(C)n1nc(-c2noc(C3CC3)c2C2=COCCC2)c2c(N)ncnc21
[D] CC(C)n1nc(-c2noc(C3CC3)c2C2CCOCC2)c2c(N)ncnc21
Exercise: Task field, ranking: reported pIC50, descending order. Arrange the labels as the request states and list them.
Solution: D, C, B, A

---

# STUDY_SYSTEM: RET kinase M918T (Homo sapiens, UniProt P07949, M918T)
# ASSAY_METHOD_TEXT: RET Enzyme Assay (HTRF KinEASE-TK), M918T
PROPERTY_MEASURED: IC50 (nM)

Field: example entries. Status: answers known.
INSERT INTO measurements (compound, study_system, observed_measurement) VALUES
  ('CC(C)n1nc(-c2noc(C3CC3)c2C2CCCCO2)c2c(N)ncnc21 (stereo not drawn) [Example 16]', 'RET kinase M918T (Homo sapiens, UniProt P07949, M918T)', 0.7),
  ('CC(C)n1nc(-c2noc(C3CC3)c2-c2ccn(C)n2)c2c(N)ncnc21 [Example 2]', 'RET kinase M918T (Homo sapiens, UniProt P07949, M918T)', 1.1),
  ('CC(C)n1nc(-c2noc(C3CC3)c2-c2cccnc2)c2c(N)ncnc21 [Example 7]', 'RET kinase M918T (Homo sapiens, UniProt P07949, M918T)', 8.7),
  ('CC(C)c1cc(-c2nn(C(C)C)c3ncnc(N)c23)n(C2CCCCO2)n1 (stereo not drawn) [Example 20]', 'RET kinase M918T (Homo sapiens, UniProt P07949, M918T)', 46.5),
  ('CC(C)n1nc(C2CC2)cc1-c1nn(C(C)C)c2ncnc(N)c12 [Example 27]', 'RET kinase M918T (Homo sapiens, UniProt P07949, M918T)', 22.3);

[P] CC(C)n1nc(-c2noc(C3CC3)c2-c2ccncc2)c2c(N)ncnc21 [Example 8]
[Q] CC(C)n1nc(-c2noc(C3CC3)c2-c2ncccn2)c2c(N)ncnc21 [Example 11]
Exercise: Which has the smaller recorded IC50, P or Q ? # reply format: chosen label
Solution: Q

[A] CC(C)n1nc(-c2noc(C3CC3)c2C2=COCCC2)c2c(N)ncnc21 [Example 10]
[B] CC(C)n1nc(-c2ccnn2C2CCCCO2)c2c(N)ncnc21 (stereo not drawn) [Example 23]
Exercise: Of A and B , which shows the smaller IC50 value? // output: label of the selected item
Solution: A
(A: 2.2 nM, B: 8.5 nM)
